Test system: Enterococcus faecium
Experiment: Antibacterial activity against vancomycin-resistant Enterococcus faecium 987 after overnight incubation
Conditions: Enterococcus faecium, 987; read-out: MIC
assay_metric: MIC (mg/L)

- C=CCOc1ccc2ccccc2c1-c1c(OCC(=O)N[C@H](CCCC)C(=O)N[C@H](CCCNC(=N)N)C(=O)N[C@@H](CC=C)C(=O)OCc2ccccc2)ccc2ccccc12.Cl: 125
- C=CCOc1ccc2ccccc2c1-c1c(OCC(=O)N[C@H](CCCCN)C(=O)N[C@H](CCCNC(=N)N)C(=O)N[C@@H](C)C(=O)OCc2ccccc2)ccc2ccccc12.Cl.Cl: 125
- CC(C)CCOc1ccc2ccccc2c1-c1c(OCC(=O)N[C@H](CCCCN)C(=O)N[C@H](CCN)C(=O)N[C@@H](CC(C)C)C(=O)OCc2ccccc2)ccc2ccccc12.Cl.Cl: 31.3

====

System: Enterococcus faecium
Assay: Antibacterial activity against vancomycin-resistant Enterococcus faecium 987 after overnight incubation
Details: Enterococcus faecium, 987; read-out: MIC
// MIC lookup, one value per entry
assay_metric: MIC (µg/mL)

• C=CCOc1ccc2ccccc2c1-c1c(OCCCC(=O)N[C@H](CCCNC(=N)N)C(=O)OCc2ccccc2)ccc2ccccc12.Cl = 125
• C=CCOc1ccc2ccccc2c1-c1c(OCC(=O)N[C@H](CC(C)C)C(=O)N[C@H](CCCNC(=N)N)C(=O)N[C@@H](CC=C)C(=O)OCc2ccccc2)ccc2ccccc12.Cl = 62.5
• C=CCOc1ccc2ccccc2c1-c1c(OCC(=O)N[C@H](CCCCN)C(=O)N[C@H](CCCCN)C(=O)N[C@@H](CC=C)C(=O)OCc2ccccc2)ccc2ccccc12.Cl.Cl = 125
• CC(C)CCOc1ccc2ccccc2c1-c1c(OCC(=O)N[C@H](CCCCN)C(=O)N[C@H](CCCCN)C(=O)N[C@@H](CC(C)C)C(=O)OCc2ccccc2)ccc2ccccc12.Cl.Cl = 62.5
• C=CCOc1ccc2ccccc2c1-c1c(OCC(=O)N[C@H](CCCNC(=N)N)C(=O)OCc2ccccc2)ccc2ccccc12.Cl = 62.5
• C=CCOc1ccc2ccccc2c1-c1c(OCC(=O)NCC(=O)NCC(=O)N[C@@H](CC=C)C(=O)OCc2ccccc2)ccc2ccccc12 = 31.3
• CC(C)CCOc1ccc2ccccc2c1-c1c(OCC(=O)N[C@H](CCCNC(=N)N)C(=O)N[C@H](CCCNC(=N)N)C(=O)N[C@@H](CC(C)C)C(=O)OCc2ccccc2)ccc2ccccc12.Cl.Cl = 31.3
• C=CCOc1ccc2ccccc2c1-c1c(OCC(=O)N[C@H](C)C(=O)N[C@H](CCCNC(=N)N)C(=O)N[C@@H](CC=C)C(=O)OCc2ccccc2)ccc2ccccc12.Cl = 62.5
• CC(C)CCOc1ccc2ccccc2c1-c1c(OCC(=O)N[C@H](CCCCN)C(=O)N[C@H](CCCN)C(=O)N[C@@H](CC(C)C)C(=O)OCc2ccccc2)ccc2ccccc12.Cl.Cl = 62.5
• C=CCOc1ccc2ccccc2c1-c1c(OCC(=O)N[C@H](CCCCN)C(=O)N[C@H](CCCNC(=N)N)C(=O)N[C@@H](Cc2ccccc2)C(=O)OC)ccc2ccccc12.Cl.Cl (stereo in doubt; 81) = 125
• C=CCOc1ccc2ccccc2c1-c1c(OCC(=O)N[C@H](CCCCN)C(=O)N[C@H](CCCNC(=N)N)C(=O)NCC(=O)OCc2ccccc2)ccc2ccccc12.Cl.Cl = 125
• CC(C)CCOc1ccc2ccccc2c1-c1c(OCC(=O)N[C@H](CCCCN)C(=O)N[C@H](CCCNC(=N)N)C(=O)N[C@H](CC(C)C)C(=O)OCc2ccccc2)ccc2ccccc12.Cl.Cl = 31.3
• C=CC[C@H](NC(=O)[C@@H](CCCNC(=N)N)NC(=O)[C@@H](CCCCN)NC(=O)COc1ccc2ccccc2c1-c1c(OCCC(C)C)ccc2ccccc12)C(=O)OCc1ccccc1.Cl.Cl = 31.3
• C=CCOc1ccc2ccccc2c1-c1c(OCC(=O)N[C@H](CCCCN)C(=O)N[C@H](CCCNC(=N)N)C(=O)N[C@@H](CC=C)C(=O)OCc2ccccc2)ccc2ccccc12.Cl.Cl = 31.3

Recorded values, source ChEMBL document CHEMBL1156988.
